# Test system: SF-539 CNS
# Assay remarks: NCI-60 one-dose screen, 48 h (100 = growth as untreated, 0 = no growth, -100 = all killed)
# Experimental setup: 10 µM unless noted
Compounds without any hit were thinned out: in the full panel of roughly 83,000, 20% have a hit. Activity calls are given as the source filed them. Rule for the calls: active = growth percent below 10; inactive = the rest.
Measured metric: growth

[[record]]
compound = "CC(Oc1ccc(-c2ccccc2)cc1)C(=O)O (configuration not stated)"
result = "99.6% (inactive)"

[[record]]
compound = "O=[N+]([O-])c1ccc(CI)cc1"
result = "56.9% (inactive)"

[[record]]
compound = "O=c1c2ccccc2nc(-c2ccccc2Cl)n1-c1nnc(C(F)(F)F)s1"
result = "19.7% (inactive)"

[[record]]
compound = "O=C(Cc1ccccc1)c1ccccc1"
result = "98.8% (inactive)"

[[record]]
compound = "O=C1c2ccccc2C(=O)N1N1CC1c1ccccc1 (configuration not stated)"
result = "102% (inactive)"

[[record]]
compound = "COc1ccc(/C=C(/C)[N+](=O)[O-])cc1OC"
result = "15.1% (inactive)"

[[record]]
compound = "ClC1OC(Cl)(Cl)C(Cl)(Cl)OC1(Cl)Cl (configuration not stated)"
result = "91% (inactive)"

[[record]]
compound = "Cc1cc[c-]cc1.Fc1c[c-]c(-c2ccccn2)c(F)c1.[Pt+2].c1ccc([PH+](c2ccccc2)c2ccccn2)cc1"
result = "72.3% (inactive)"

[[record]]
compound = "c1ccc2c(c1)O[As](O[As]1Oc3ccccc3O1)O2"
result = "-32.9% (active)"

[[record]]
compound = "CCCCn1c(=O)c(C(=O)NCc2ccccc2Cl)c(O)c2ccccc21"
result = "97.4% (inactive)"


Exercise: Consider the compound COc1ccc(N(CC(=O)NCCC[Te]c2ccccc2)C(=O)c2ccccc2)cc1 and give its measured growth.
Key: 31.4% (inactive)

Exercise: Consider the compound CCOP(=O)(OCC)C(=O)N(CC)CC and give its measured growth.
Key: 113% (inactive)

Recorded values, source PubChem BioAssay (NCI).
